System: HOP-92 NSCLC
procedure-text: NCI-60 one-dose screen, 48 h
settings: 10 µM unless noted
This is part of a sample that, as a whole, favours compounds with a hit. Of some 83,000 tested, about 20% had one in any assay. Calls of active or inactive are those of the source. Rule for the calls: active = growth percent below 10; inactive = the rest.
Give one outcome, nothing more. List: active, inactive

{"compound": "C/C(Cc1ccc(Cl)cc1)=C(\\c1ccc(OCCCN(C)C)cc1)c1ccc(OC(=O)Cc2ccccc2)cc1", "classification": "inactive"}

Qu. Hi, do you know how COc1ccc(C(=O)Cn2c(C(=O)c3ccc(Cl)cc3)nc3ccccc32)cc1 came out in this test?
Ans. inactive

Qu. What do you have for C/C=C(\C)C(=O)N[C@H]1C(O)C[C@]2(C)C3CC[C@@]4(C)C(CC[C@@H]4C(C)N(C)C)C3CCC2C1O (some centres undefined) ?
Ans. inactive

Qu. Also need C#CCOc1cccc(-c2ncnc3cc(NC(=O)C=C)ccc23)c1 , thanks.
Ans. inactive

---

compounds and their reported growth
Tested on: OVCAR-5 ovarian
procedure-text: NCI-60 one-dose screen, 48 h (100 = growth as untreated, 0 = no growth, -100 = all killed)
settings: 10 µM unless noted
This is part of a sample that, as a whole, favours compounds with a hit. Of some 83,000 tested, about 20% had one in any assay. Active and inactive are the calls of the source. How the source made its calls: active means growth percent below 10; inactive means the rest.

Below are worked cases with known answers.
{"compound": "CCN1C(=O)N(CC)C2Nn3c(s/c(=C\\c4ccccc4Br)c3=O)=NC21 (stereo not given)", "growth": "28.9% (inactive)"}
{"compound": "Cc1ccc(/C=C/C(=O)c2cccc(OCCCOc3cccc(C(=O)/C=C/c4ccc(C)cc4)c3)c2)cc1", "growth": "124% (inactive)"}
{"compound": "O=C1c2cccc3cccc(c23)C(=O)N1C/C=C/c1ccc2c3c(cccc13)C(=O)N(CCO)C2=O", "growth": "79.2% (inactive)"}

Qu. // map C#CCn1cnc2cnc(Nc3cccc(NC(=O)C=C)c3)nc21 to recorded growth (system: OVCAR-5 ovarian)
Ans. 101% [6.25 µM] (inactive)

Qu. Cool, now O=C(O)c1ccc(-c2ccc(/C=N/Nc3nc(Nc4ccccc4)nc(N4CCCCC4)n3)o2)cc1
Ans. 94.9% (inactive)

---

Tested on: SNB-19 CNS
procedure-text: NCI-60 one-dose screen, 48 h (100 = growth as untreated, 0 = no growth, -100 = all killed)
settings: 10 µM unless noted
Protocol: Growth inhibition of the SNB-19 human tumor cell line is measured as a screen for anti-cancer activity. Cells are grown in 96 well plates and exposed to the test compound for 48 hours. Compounds are tested at a single concentration, which is 10^-5 M for most compounds. The reported endpoint is percent growth (GI% or GIPRCNT), where numbers from 0 - 100% represent growth inhibition, and numbers from -100% - 0 represent cell death. For example, a value of 40 represents 60% growth inhibition. […]
This is part of a sample that, as a whole, favours compounds with a hit. Of some 83,000 tested, about 20% had one in any assay.
Recorded growth, one value per entry.
Kindly answer with a numeric value in %, unit omitted.

// known answers, use as guide
{"smiles-input": "O=C(CI)NC(=O)NC(=O)NCc1ccccc1", "units-label": "%", "result": 101}
{"smiles-input": "O=C1Nc2ccccc2/C1=C\\c1c[nH]c2ccc(Br)cc12", "units-label": "%", "result": 88.6}
{"smiles-input": "O=C(Cn1nnc2ccccc21)N/N=C/c1c[nH]c2ccccc12", "units-label": "%", "result": 41.3}

Qu. Consider the compound shown here: COc1cc(C2C(C(=O)OCc3ccccc3)=C(C)NC(C)=C2C(=O)OCc2ccccc2)cc(OC)c1OC What is its recorded growth?
Ans. 42.5

Qu. Let us now turn to Cc1ccc2nc(NC(=O)CSc3nc(-c4ccccc4)c(C#N)c4nnnn34)sc2c1
Ans. 102

---

Tested on: K-562 leukemia
procedure-text: NCI-60 one-dose screen, 48 h (100 = growth as untreated, 0 = no growth, -100 = all killed)
settings: 10 µM unless noted
About 83,000 compounds went through this panel and 20% of them were active in at least one assay; those are over-represented in the sample as a whole.
The threshold is inclusive: growth of exactly 30% counts as Fulfilled; values below receive Not fulfilled.

{"compound": "CC(=O)OC(c1ccccc1)C1CCOC1=O (stereo not drawn)", "classification": "Fulfilled"}
{"compound": "CCOc1ccc(-n2nc(C(=O)NCc3ccccc3OC)nc2-c2cc(OC)c(OC)c(OC)c2)cc1", "classification": "Not fulfilled"}
{"compound": "C=Cc1cnc(Nc2ccc(OC)cc2)nc1NCCCNC(=O)C1CCC1", "classification": "Fulfilled"}

Qu. Is growth for Cc1ccc2c(-c3nnc(N)s3)cc(=O)oc2c1C at or above 30%?
Ans. Fulfilled

Qu. Again, but for O=C(/C=C(O)/C=C/c1cccc2[nH]ccc12)/C=C/c1cccc2[nH]ccc12
Ans. Not fulfilled

Qu. Quick one: CCOC(=O)c1c(C)nc2c(c1N)/C(=C/c1ccc(OC)cc1)C(=O)N2Cc1ccccc1
Ans. Fulfilled

Qu. And the next one, COc1ccc2c(c1)/C(=N/c1n[nH]c(=S)s1)C(=O)N2 ?
Ans. Fulfilled

---

System: HOP-92 NSCLC
procedure-text: NCI-60 one-dose screen, 48 h (100 = growth as untreated, 0 = no growth, -100 = all killed)
settings: 10 µM unless noted
The panel holds about 83,000 compounds, 20% with a hit somewhere; the sample as a whole holds those more often.
Rule: growth under 70% gives Not satisfied, otherwise Satisfied.

{"molecule": "CN1CCN(C(=O)[C@@]2(C)CC[C@]3(C)CC[C@]4(C)C(=CC[C@@H]5[C@@]6(C)CCC(=O)NC(C)(C)[C@@H]6CC[C@]54C)[C@@H]3C2)CC1", "system": "HOP-92 NSCLC", "classification": "Not satisfied"}
{"molecule": "Nc1[nH]n2cc(-c3ccc(F)cc3)nc2c1N=Nc1ccc(S(N)(=O)=O)cc1", "system": "HOP-92 NSCLC", "classification": "Satisfied"}
{"molecule": "N#Cc1cccc(C2C3=C(COC3=O)N(CCO)c3cc4c(cc32)CCC4)c1 (stereo unspecified)", "system": "HOP-92 NSCLC", "classification": "Not satisfied"}

Qu. Entry O=C(CSc1nnc(-c2cc(-c3ccccc3)nc3ccccc23)n1-c1ccccc1)Nc1ccc(C(=O)/C=C/c2ccc(Cl)cc2)cc1 : is its growth no less than 70%?
Ans. Satisfied

Qu. Then this molecule: Cc1ccc(-c2csc(N(C(=O)N3CCN(c4cc5c(cc4F)c(=O)c(C(=O)O)cn5C4CC4)CC3)c3ccccc3)n2)cc1
Ans. Not satisfied

Qu. Proceed to C#CC#CC#CC#CC#CC#CC#CC#CC[C@@H]1OC[C@@H](COC(=O)O[C@@H](C(=O)O[C@H]2C[C@@]3(O)[C@@H](OC(=O)c4ccccc4)[C@@H]4[C@]5(OC(C)=O)CO[C@@H]5C[C@H](O)[C@@]4(C)C(=O)[C@H](OC(C)=O)C(=C2C)C3(C)C)[C@@H](NC(=O)c2ccccc2)c2ccccc2)O1
Ans. Not satisfied

---

Test system: DU-145 prostate
procedure-text: NCI-60 one-dose screen, 48 h
settings: 10 µM unless noted
This is part of a sample that, as a whole, favours compounds with a hit. Of some 83,000 tested, about 20% had one in any assay. The source made the active and inactive calls. Rule for the calls: active = growth percent below 10; inactive = the rest.
Result category, one only: active, inactive

Illustrative cases are given below, each with its answer.
{"compound": "CN1CCN(Cc2ccc(NC(=O)c3cncc(C#Cc4cnc(N)c5ccc(F)cc45)c3)cc2C(F)(F)F)CC1", "classification": "active"}
{"compound": "CN(CCCNC(=O)Cc1ccc2ccc3cccc4ccc1c2c34)CCCNc1cc(-c2ccc3ccccc3c2)nc2ccccc12", "classification": "active"}
{"compound": "Nc1nc2c(c3ncccc13)C(c1cccc(Cl)c1)Cc1ncccc1-2 (centres undefined)", "classification": "inactive"}
{"compound": "Cc1ccc(CNc2ccc3nc(CCC(C)C)[nH]c3c2)cc1", "classification": "inactive"}
{"compound": "CC(=O)c1sc2sc(C(C)=O)c(C)c2c1C", "classification": "inactive"}

Continue with the next compound.
Qu. Can you look up the reported call for CC1=C2[C@@H](CC1)[C@]1(C)O[C@@](c3ccccc3)(C[C@H]1OC(=O)CO)[C@H]2OC(=O)/C=C/c1ccccc1 for me?
Ans. inactive

---

Test system: IGROV1 ovarian
procedure-text: NCI-60 one-dose screen, 48 h
settings: 10 µM unless noted
About 83,000 compounds went through this panel and 20% of them were active in at least one assay; those are over-represented in the sample as a whole. Activity calls are given as the source filed them. Rule for the calls: active = growth percent below 10; inactive = the rest.
Mark one answer only. Choices: active, inactive

Example results:
{"compound": "COc1cc(OC)c2sc(-c3ccc(-n4cncc4-c4cc(OC)c(OC)c(OC)c4)cc3)nc2c1", "classification": "inactive"}
{"compound": "O=C(CCCCCCN1CC(=O)N2[C@H](c3ccc(Cl)cc3)c3[nH]c4ccccc4c3C[C@@H]2C1=O)NO", "classification": "inactive"}
{"compound": "Oc1c(CN2CCCC2)cc(CSCc2ccccc2)c2cccnc12", "classification": "active"}
{"compound": "N#CC1CCc2c(c(-c3ccc4nc(N)sc4c3)nc3ccc4[nH]ncc4c23)C1 (centres undefined)", "classification": "inactive"}
{"compound": "O=C(O)/C=C/C(=O)Nc1cccc(Cn2nnc3cc(Cl)c(Cl)cc32)c1", "classification": "inactive"}

Qu. Answer briefly: the call reported for Cc1c(Cl)cccc1C(=O)Nc1nc2c(s1)CN(C(=O)c1ccc(C(F)(F)F)cc1)CC2 in this assay.
Ans. inactive

Qu. Could you do the same for Nc1nc(N)c2c(n1)NC(c1cccc(Nc3ccnc4cc(C(F)(F)F)ccc34)c1)CC(c1ccc(Br)cc1)=N2 (centres undefined) , please?
Ans. inactive

Qu. Input CCCC(CC)(C(=O)Nc1ccc2nc(C)cc(N)c2c1)C(=O)Nc1ccc2nc(C)cc(N)c2c1
Ans. inactive

Qu. Now the same for O=C(NC(Cc1nnc2n(Cc3ccccc3)c(=O)c3c4c(sc3n12)CCCC4)c1ccccc1)c1ccccc1 (centres undefined)
Ans. inactive

Reference source: PubChem BioAssay (NCI)
